// data source = patent US10544126B2

- target.or.system: human PKR1 receptors (Homo sapiens (Human))
- Sequence (Q8TCW9 whole entry): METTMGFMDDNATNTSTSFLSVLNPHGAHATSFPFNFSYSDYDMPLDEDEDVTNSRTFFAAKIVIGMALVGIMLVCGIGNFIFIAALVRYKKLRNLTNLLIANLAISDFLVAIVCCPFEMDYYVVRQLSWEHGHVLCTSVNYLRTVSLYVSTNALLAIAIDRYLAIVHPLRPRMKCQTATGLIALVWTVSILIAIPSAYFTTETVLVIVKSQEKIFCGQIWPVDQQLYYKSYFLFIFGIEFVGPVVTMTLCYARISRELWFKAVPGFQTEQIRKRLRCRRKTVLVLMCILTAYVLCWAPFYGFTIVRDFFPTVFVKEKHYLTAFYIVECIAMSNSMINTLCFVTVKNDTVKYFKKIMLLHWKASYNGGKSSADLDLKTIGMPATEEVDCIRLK
- test.details: PKR1 antagonist assay: block of PK1-mediated intracellular calcium release (FLIPR)
- assay.setup: antagonist activity; RBL2H3 cells expressing human PKR1; stimulation with PK1 at EC80; calcium fluorescence
measured.quantity: pIC50
One number for each entry, as −log10 of the molar value.

Form field: reported pIC50 of Cc1n[nH]c(C)c1S(=O)(=O)N1CCC(C(C#N)c2ccc(Cl)cc2F)CC1 (stereo not shown) [Example 92] 5.73
